- Test system: HCV replicon cells Huh 9B
- Assay type: cell-based
- MEASUREMENT_PARAMETERS: concentration reducing total cell area by 50% relative to DMSO controls; 72 h

>  <COMPOUND>
COCC(C)Oc1ccc(Cl)cc1C(=O)NC1N=C(c2c(Cl)cc(Cl)cc2Cl)c2ccccc2NC1=O (stereo not drawn)

>  <Replicon Assay Value TD50>
>25 µM

$$$$
>  <COMPOUND>
COCCOc1ccc(Cl)cc1C(=O)NC1N=C(c2c(Cl)cccc2Cl)c2ccccc2NC1=O (stereo not drawn)

>  <Replicon Assay Value TD50>
>25 µM

$$$$
>  <COMPOUND>
COCCOc1ncc(F)cc1C(=O)NC1N=C(c2c(Cl)cc(Cl)cc2Cl)c2ccccc2NC1=O (stereo not drawn)

>  <Replicon Assay Value TD50>
>25 µM

$$$$

---

# IC50 per record follows
- Test system: HCV replicon cells Huh 9B
- ASSAY_PROCEDURE: HCV replicon assay (luciferase)
- Assay type: cell-based
- MEASUREMENT_PARAMETERS: Hepatitis C virus, reduction of replicon level by 50% vs untreated cell control, 72 h

>  <MOLECULE>
CN(CCOCC1CC1)c1ncc(F)cc1C(=O)NC1N=C(c2c(Cl)cc(Cl)cc2Cl)c2ccccc2NC1=O (centres unmarked) [Example 46]

>  <IC50 (nM)>
151

$$$$
>  <MOLECULE>
CCOc1cc(Cl)cc(Cl)c1C1=N[C@@H](NC(=O)c2cc(F)ccc2OCCOC)C(=O)Nc2ccccc21 [Example 70]

>  <IC50 (nM)>
737

$$$$
>  <MOLECULE>
COCCOc1ncc(Cl)cc1C(=O)NC1N=C(c2c(Cl)cc(Cl)cc2Cl)c2ccccc2NC1=O (centres unmarked) [Example 32]

>  <IC50 (nM)>
136

$$$$
>  <MOLECULE>
COCCOc1ccc(C)cc1C(=O)NC1N=C(c2c(Cl)cc(Cl)cc2Cl)c2ccccc2NC1=O (centres unmarked) [Example 17]

>  <IC50 (nM)>
78.8

$$$$
>  <MOLECULE>
COCCOc1nccc(C)c1C(=O)NC1N=C(c2c(Cl)cc(Cl)cc2Cl)c2ccccc2NC1=O (centres unmarked) [Example 40]

>  <IC50 (nM)>
856

$$$$
>  <MOLECULE>
O=C(NC1N=C(c2c(Cl)cc(Cl)cc2Cl)c2ccccc2NC1=O)c1cc(Cl)ccc1OCCOc1ccccc1 (centres unmarked) [Example 11]

>  <IC50 (nM)>
1150

$$$$
>  <MOLECULE>
COCCOc1ccccc1C(=O)NC1N=C(c2c(Cl)cc(Cl)cc2Cl)c2ccccc2NC1=O (centres unmarked) [Example 15]

>  <IC50 (nM)>
110

$$$$
>  <MOLECULE>
COCCOc1ccc(F)cc1C(=O)NC1N=C(c2c(Cl)cccc2Cl)c2ccccc2NC1=O (centres unmarked) [Example 48]

>  <IC50 (nM)>
703

$$$$

---

# pIC50 per record follows
- TESTED_TARGET: Recombinant HCV polymerase (BK strain) (Hepatitis C virus genotype 1b, UniProt P26663)
- Construct: Recombinant HCV polymerase (BK strain) was expressed and purified from E. coli with a 21 amino acid C-terminal deletion; His6
- Sequence (P26663 2420-2989): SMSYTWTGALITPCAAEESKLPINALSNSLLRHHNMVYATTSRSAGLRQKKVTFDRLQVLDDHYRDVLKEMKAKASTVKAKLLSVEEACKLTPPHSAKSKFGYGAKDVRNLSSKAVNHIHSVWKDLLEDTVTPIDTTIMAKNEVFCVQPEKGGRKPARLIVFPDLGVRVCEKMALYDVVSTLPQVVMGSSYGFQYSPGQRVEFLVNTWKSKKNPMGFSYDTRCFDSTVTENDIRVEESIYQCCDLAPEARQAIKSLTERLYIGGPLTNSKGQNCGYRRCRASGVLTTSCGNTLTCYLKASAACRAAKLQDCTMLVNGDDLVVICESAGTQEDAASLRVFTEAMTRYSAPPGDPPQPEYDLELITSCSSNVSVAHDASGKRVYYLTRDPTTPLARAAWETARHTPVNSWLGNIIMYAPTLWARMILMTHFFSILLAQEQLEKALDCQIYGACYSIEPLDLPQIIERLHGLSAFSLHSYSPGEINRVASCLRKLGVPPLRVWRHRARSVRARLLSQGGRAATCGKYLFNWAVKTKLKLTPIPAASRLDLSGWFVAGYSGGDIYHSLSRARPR
- ASSAY_PROCEDURE: HCV polymerase enzyme assay (radiometric [33P]-UTP incorporation)
pIC50: −log10 of the molar value.

>  <COMPOUND>
COCCOc1ccc(C(C)=O)cc1C(=O)NC1N=C(c2c(Cl)cc(Cl)cc2Cl)c2ccccc2NC1=O (stereo not drawn)

>  <pIC50>
6.41

$$$$
>  <COMPOUND>
CC(=O)NCCCOc1ccc(Cl)cc1C(=O)NC1N=C(c2c(Cl)cc(Cl)cc2Cl)c2ccccc2NC1=O (stereo not drawn)

>  <pIC50>
6.34

$$$$
>  <COMPOUND>
COCCOc1ccccc1C(=O)NC1N=C(c2c(Cl)cc(Cl)cc2Cl)c2ccccc2NC1=O (stereo not drawn)

>  <pIC50>
6.52

$$$$
>  <COMPOUND>
CC(C)OCCOc1ncc(F)cc1C(=O)NC1N=C(c2c(Cl)cc(Cl)cc2Cl)c2ccccc2NC1=O (stereo not drawn)

>  <pIC50>
6.61

$$$$
>  <COMPOUND>
CCOCCOCCOc1ccc(Cl)cc1C(=O)NC1N=C(c2c(Cl)cc(Cl)cc2Cl)c2ccccc2NC1=O (stereo not drawn)

>  <pIC50>
5.97

$$$$
>  <COMPOUND>
COCCOCCOc1ncc(F)cc1C(=O)NC1N=C(c2c(Cl)cc(Cl)cc2Cl)c2ccccc2NC1=O (stereo not drawn)

>  <pIC50>
6.99

$$$$
